# Experimental system: pseudo-kinase domain (JH2, amino-acids 536-812 with 3 surface mutations W659A, W777A, F794H) of human Wild Type JAK2 (Homo sapiens, UniProt O60674, F794H/W659A/W777A)
# Construct: pseudo-kinase domain (JH2, amino-acids 536-812 with 3 surface mutations W659A, W777A, F794H); His (C); Avi (biotinylated) (C)
# Sequence (O60674 536-812 W659A/W777A/F794H): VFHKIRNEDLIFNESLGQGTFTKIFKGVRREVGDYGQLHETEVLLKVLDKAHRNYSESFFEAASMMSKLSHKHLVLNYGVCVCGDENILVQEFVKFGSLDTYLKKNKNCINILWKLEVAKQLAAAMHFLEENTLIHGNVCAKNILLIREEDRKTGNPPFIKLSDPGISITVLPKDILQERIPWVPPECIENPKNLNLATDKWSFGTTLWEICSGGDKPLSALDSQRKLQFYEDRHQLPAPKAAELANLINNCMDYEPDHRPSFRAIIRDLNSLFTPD
# Protocol details: JAK2 LanthaScreen JH2-WT binding assay
# Conditions: 50 nM tracer, 1 hour at 25° C., read-out: JH2 BIND WT IC50
Property: IC50

[[record]]
compound = "COC(=O)N[C@@H]1CC[C@@H](N2C(=O)NCc3cnc4[nH]c(-c5cnn(C)c5)c(-c5ccc6c(cnn6C6CCC6)c5)c4c32)C1 [Example 24]"
test_value = "10 to 100 nM"

[[record]]
compound = "CC(C)n1ncc2cc(-c3c(-c4cnn(C)c4)[nH]c4ncc5c(c34)N([C@H]3C[C@H](NS(C)(=O)=O)C3)C(=O)NC5)ccc21 [Example 3]"
test_value = "≤ 10 nM"

[[record]]
compound = "CC(C)n1ncc2cc(-c3c(-c4cnn(C)c4)[nH]c4ncc5c(c34)N([C@H]3CC[C@@H]3NS(C)(=O)=O)C(=O)NC5)ccc21 (racemic) [Example 7]"
test_value = "10 to 100 nM"


// data source = patent US20240300948A1
